Target: Rγc subunit (Homo sapiens, UniProt P31785)
Construct: purchased ACRObiosystems, Inc. ILG-H5256
Sequence (P31785 23-254): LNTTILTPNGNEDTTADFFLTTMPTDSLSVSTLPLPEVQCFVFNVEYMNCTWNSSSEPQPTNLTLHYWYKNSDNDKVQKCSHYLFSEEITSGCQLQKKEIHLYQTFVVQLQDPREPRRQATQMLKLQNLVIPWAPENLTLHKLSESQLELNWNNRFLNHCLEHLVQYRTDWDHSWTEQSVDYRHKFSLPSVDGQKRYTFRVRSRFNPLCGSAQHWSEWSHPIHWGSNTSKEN
Assay: Alanine scan competition binding assay, binding to Rγc subunit
Conditions: alanine scan peptides
IC50 overview

input: Need IC50, item CC(C)C[C@@H]1NC(=O)[C@H](CCC(=O)O)NC(=O)[C@H](C(C)C)NC(=O)CNC(=O)[C@H](CCC(=O)O)NC(=O)[C@H](Cc2c[nH]c3ccccc23)NC(=O)[C@H](CC(=O)O)NC(=O)[C@H](CCC(N)=O)NC(=O)[C@@H](NC(=O)[C@@H](NC(=O)[C@@H](NC(=O)CNC(=O)CN)C(C)C)C(C)C)CSSC[C@@H](C(=O)N[C@@H](Cc2c[nH]c3ccccc23)C(=O)N[C@@H](CCC(N)=O)C(=O)NCC(=O)NCC(=O)O)NC1=O
output: < 50 nM

---
input: Need IC50, item CC(C)C[C@@H]1NC(=O)[C@H](CCC(=O)O)NC(=O)[C@H](C(C)C)NC(=O)CNC(=O)[C@H](CCC(=O)O)NC(=O)[C@H](Cc2c[nH]c3ccccc23)NC(=O)[C@H](CC(=O)O)NC(=O)[C@H](C)NC(=O)[C@@H](NC(=O)[C@@H](NC(=O)[C@@H](NC(=O)CNC(=O)CN)C(C)C)C(C)C)CSSC[C@@H](C(=O)N[C@@H](Cc2c[nH]c3ccccc23)C(=O)N[C@@H](CCC(N)=O)C(=O)NCC(=O)NCC(=O)O)NC1=O
output: < 100 nM

input: Need IC50, item CC(C)C[C@@H]1NC(=O)[C@H](CCC(=O)O)NC(=O)[C@H](C(C)C)NC(=O)[C@H](C)NC(=O)[C@H](CCC(=O)O)NC(=O)[C@H](Cc2c[nH]c3ccccc23)NC(=O)[C@H](CC(=O)O)NC(=O)[C@H](CCC(N)=O)NC(=O)[C@@H](NC(=O)[C@@H](NC(=O)[C@@H](NC(=O)CNC(=O)CN)C(C)C)C(C)C)CSSC[C@@H](C(=O)N[C@@H](Cc2c[nH]c3ccccc23)C(=O)N[C@@H](CCC(N)=O)C(=O)NCC(=O)NCC(=O)O)NC1=O
output: < 100 nM

input: Need IC50, item CC(C)C[C@@H]1NC(=O)[C@H](CCC(=O)O)NC(=O)[C@H](C(C)C)NC(=O)CNC(=O)[C@H](CCC(=O)O)NC(=O)[C@H](Cc2c[nH]c3ccccc23)NC(=O)[C@H](C)NC(=O)[C@H](CCC(N)=O)NC(=O)[C@@H](NC(=O)[C@@H](NC(=O)[C@@H](NC(=O)CNC(=O)CN)C(C)C)C(C)C)CSSC[C@@H](C(=O)N[C@@H](Cc2c[nH]c3ccccc23)C(=O)N[C@@H](CCC(N)=O)C(=O)NCC(=O)NCC(=O)O)NC1=O
output: < 50 nM
